biological target: his-labeled human IL-13 (immunogen A) (human) (UniProt P35225); experiment: FACS blocking, biotin-IL-13 on IL-13Ra2 HEK293 cells; antibody at 33.33 nM
Checkbox rule: mean fluorescence intensity lower than 30 = 1; mean fluorescence intensity not lower than 30 = -1.

For orientation, consider the following solved cases.
binder="70F10A10 (lead antibody, mouse hybridoma) (antibody, V domains shown) VH: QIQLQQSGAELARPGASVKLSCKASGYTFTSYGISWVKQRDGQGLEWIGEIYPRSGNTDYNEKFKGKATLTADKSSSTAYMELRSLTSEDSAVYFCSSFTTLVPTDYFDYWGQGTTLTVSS VL: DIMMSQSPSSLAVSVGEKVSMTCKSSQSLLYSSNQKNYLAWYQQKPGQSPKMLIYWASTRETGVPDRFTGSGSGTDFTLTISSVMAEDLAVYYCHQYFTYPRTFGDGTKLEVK" cat=-1
binder="c35E2C3 (mouse-human chimeric IL-13 antibody) (antibody, V domains shown) VH: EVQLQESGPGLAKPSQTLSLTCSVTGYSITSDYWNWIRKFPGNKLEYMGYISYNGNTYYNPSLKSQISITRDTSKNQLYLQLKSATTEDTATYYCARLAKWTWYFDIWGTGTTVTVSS VL: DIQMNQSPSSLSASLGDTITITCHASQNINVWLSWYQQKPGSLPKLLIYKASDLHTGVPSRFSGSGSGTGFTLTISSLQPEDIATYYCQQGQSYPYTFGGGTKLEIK" cat=1
binder="29D9H8 (lead antibody, mouse hybridoma) (antibody, V domains shown, Mouse monoclonal antibody purified from hybridoma supernatant on Protein G) VH: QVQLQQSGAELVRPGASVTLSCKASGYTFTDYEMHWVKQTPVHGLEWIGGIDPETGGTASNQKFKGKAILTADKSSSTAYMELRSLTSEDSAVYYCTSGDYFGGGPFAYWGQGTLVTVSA VL: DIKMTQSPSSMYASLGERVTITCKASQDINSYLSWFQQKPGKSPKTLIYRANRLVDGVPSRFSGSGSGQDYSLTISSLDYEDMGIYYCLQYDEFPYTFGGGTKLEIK" cat=1

In plain terms, does c70F10A10 (mouse-human chimeric IL-13 antibody) (antibody, V domains shown) VH: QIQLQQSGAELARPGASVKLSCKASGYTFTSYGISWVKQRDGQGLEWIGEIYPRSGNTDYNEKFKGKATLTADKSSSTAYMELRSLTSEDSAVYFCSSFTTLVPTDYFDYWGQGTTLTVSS VL: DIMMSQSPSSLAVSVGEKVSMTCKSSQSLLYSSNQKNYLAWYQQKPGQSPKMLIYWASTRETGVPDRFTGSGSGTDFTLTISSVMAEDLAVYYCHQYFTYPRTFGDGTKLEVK come in under 30 for mean fluorescence intensity?
1

In plain terms, does 35E2C3 (lead antibody, mouse hybridoma) (antibody, V domains shown, Mouse monoclonal antibody purified from hybridoma supernatant on Protein G) VH: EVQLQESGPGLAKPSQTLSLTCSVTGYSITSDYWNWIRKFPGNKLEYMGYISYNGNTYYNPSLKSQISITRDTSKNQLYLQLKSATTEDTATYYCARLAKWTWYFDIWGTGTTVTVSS VL: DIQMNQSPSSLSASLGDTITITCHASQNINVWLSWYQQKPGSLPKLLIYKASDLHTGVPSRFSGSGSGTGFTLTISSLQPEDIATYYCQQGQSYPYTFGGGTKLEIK come in under 30 for mean fluorescence intensity?
-1

In plain terms, does 28A2E11 (lead antibody, mouse hybridoma) (antibody, V domains shown, Mouse monoclonal antibody purified from hybridoma supernatant on Protein G) VH: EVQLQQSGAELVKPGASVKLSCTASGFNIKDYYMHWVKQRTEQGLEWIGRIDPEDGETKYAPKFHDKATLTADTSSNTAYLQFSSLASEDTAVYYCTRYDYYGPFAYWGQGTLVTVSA VL: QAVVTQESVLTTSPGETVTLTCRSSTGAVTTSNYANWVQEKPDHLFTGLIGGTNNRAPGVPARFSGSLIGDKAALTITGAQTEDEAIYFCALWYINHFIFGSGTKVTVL come in under 30 for mean fluorescence intensity?
-1
